Tested on: PRKACA-PRKAR2A interaction (SmBiT-PRKACA / LgBiT-PRKAR2A), protein kinase A
Design: NanoLuc complementation counter-screen in cell extract, PRKACA with PRKAR2A, loss of luminescence, detects NanoLuc interference
Details: counter-screen for NanoLuc interference, 0.5 h, 20 µM, inhibitor, Inh (PKA)
Where a name gives a salt, the structure may show the parent alone.
# reported Inh (PKA); entries follow

molecule: CCCC(CCC)C(=O)O [UM0141598:02]
study.target: PRKACA-PRKAR2A interaction (SmBiT-PRKACA / LgBiT-PRKAR2A), protein kinase A
endpoint.unit: %
Inh (PKA): 0.874

molecule: O=C(c1ccccc1)c1ccc2n1CCC2C(=O)O (stereo not shown) [UM0142511:01, Ketorolac]
study.target: PRKACA-PRKAR2A interaction (SmBiT-PRKACA / LgBiT-PRKAR2A), protein kinase A
endpoint.unit: %
Inh (PKA): 0.7443

molecule: C[C@H]1c2cccc(O)c2C(=O)C2=C(O)[C@]3(O)C(=O)C(C(N)=O)=C(O)[C@@H](N(C)C)[C@@H]3[C@@H](O)[C@@H]21 [UM0142036:01, Doxycycline HCl]
study.target: PRKACA-PRKAR2A interaction (SmBiT-PRKACA / LgBiT-PRKAR2A), protein kinase A
endpoint.unit: %
Inh (PKA): 1.035

molecule: CN1CCc2nc(C(=O)N[C@@H]3C[C@@H](C(=O)N(C)C)CC[C@@H]3NC(=O)C(=O)Nc3ccc(Cl)cn3)sc2C1 [UM0141545:01, Edoxaban]
study.target: PRKACA-PRKAR2A interaction (SmBiT-PRKACA / LgBiT-PRKAR2A), protein kinase A
endpoint.unit: %
Inh (PKA): 0.988

molecule: COc1ccc(S(=O)(=O)N(CCO)c2ccccc2CN(C)C/C=C/c2ccc(Cl)cc2)cc1 [UM0142198:01, KN-93 hydrochloride]
study.target: PRKACA-PRKAR2A interaction (SmBiT-PRKACA / LgBiT-PRKAR2A), protein kinase A
endpoint.unit: %
Inh (PKA): 38.66

molecule: CN1CCN(c2ccc3nc(-c4c(N)c5c(F)cccc5[nH]c4=O)[nH]c3c2)CC1 [UM0141446:01, Dovitinib (TKI-258, CHIR-258)]
study.target: PRKACA-PRKAR2A interaction (SmBiT-PRKACA / LgBiT-PRKAR2A), protein kinase A
endpoint.unit: %
Inh (PKA): 5.935

molecule: COC(=O)N[C@H](C(=O)N[C@@H](Cc1ccccc1)[C@@H](O)CN(Cc1ccc(-c2ccccn2)cc1)NC(=O)[C@@H](NC(=O)OC)C(C)(C)C)C(C)(C)C [UM0141949:01, Atazanavir]
study.target: PRKACA-PRKAR2A interaction (SmBiT-PRKACA / LgBiT-PRKAR2A), protein kinase A
endpoint.unit: %
Inh (PKA): 2.849

* * *

Target: MeCP2-TBL1 interaction (MeCP2-SmBiT / TBL1-LgBiT) (Mus musculus)
Construct: expressed in transfected cells; crude lysate used as a cell-free assay
Sequence (Q9QXE7 166-527): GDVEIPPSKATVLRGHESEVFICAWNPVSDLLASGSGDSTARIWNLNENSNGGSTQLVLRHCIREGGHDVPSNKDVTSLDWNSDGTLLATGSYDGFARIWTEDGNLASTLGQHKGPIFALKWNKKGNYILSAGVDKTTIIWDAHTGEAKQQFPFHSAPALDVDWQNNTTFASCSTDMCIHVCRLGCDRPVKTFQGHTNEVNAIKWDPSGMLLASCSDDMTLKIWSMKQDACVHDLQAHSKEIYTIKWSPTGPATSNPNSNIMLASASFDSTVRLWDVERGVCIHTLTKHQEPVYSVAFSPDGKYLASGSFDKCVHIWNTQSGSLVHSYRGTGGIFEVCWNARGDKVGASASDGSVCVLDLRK
Experiment: MeCP2-TBL1 NanoLuc luciferase complementation assay (cell-free, extracts of transfected HEK293 cells);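 also: each compound tested at 20 µM final concentration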
Type: binding, human
Settings: primary screen of the Asinex library, sheet "Sargen output Asinex library", one well per compound, Batch Ref. 1

compound: COc1ccccc1Cc1cnc(C2CCCN(S(=O)(=O)c3cn(C)nc3C)C2)o1 (stereo not shown) [BDE_33511387]
Inhibition percent, %: 4.61

compound: Cc1cc(Cc2ccccc2F)cc(C2CN(C(=O)Cn3cnc4ccccc43)CCO2)n1 (stereo not shown) [BDF_26219772]
Inhibition percent, %: 3.08

compound: CC(=O)Nc1cccc([C@@H]2CN(CCc3ccc(F)cc3)C[C@]23CCCCC(=O)N3)c1 [BDF_30280717]
Inhibition percent, %: -0.37

compound: O=C(COc1ncnc2ccccc12)N1CCCCC1c1ncc(Cc2ccc(F)cc2)o1 (stereo not shown) [BDE_33513539]
Inhibition percent, %: -1.92

* * *

# reported Inh (PKA); entries follow
Test system: PRKACA-PRKAR2A interaction (SmBiT-PRKACA / LgBiT-PRKAR2A), protein kinase A
Set-up: NanoLuc complementation counter-screen in cell extract, PRKACA with PRKAR2A, loss of luminescence, detects NanoLuc interference
Conditions: counter-screen for NanoLuc interference; 0.5 h, 20 µM; inhibitor
Counter-ions that a name gives are not always drawn.
measure: Inh (PKA) (%)

compound: Cn1c(=O)c2c(ncn2CC(O)CO)n(C)c1=O (centres unmarked)
study.target: PRKACA-PRKAR2A interaction (SmBiT-PRKACA / LgBiT-PRKAR2A), protein kinase A
endpoint.unit: %
value.measured: 1.648
//
compound: Nc1c(CC(=O)O)cccc1C(=O)c1ccc(Br)cc1 [UM0142342:01, Bromfenac Sodium]
study.target: PRKACA-PRKAR2A interaction (SmBiT-PRKACA / LgBiT-PRKAR2A), protein kinase A
endpoint.unit: %
value.measured: 5.05
//
compound: O=C(/C=C/c1ccc(O)c(O)c1)c1ccc(O)cc1O
study.target: PRKACA-PRKAR2A interaction (SmBiT-PRKACA / LgBiT-PRKAR2A), protein kinase A
endpoint.unit: %
value.measured: 52.51
//
compound: O=C(/C=C\n1cnc(-c2cc(C(F)(F)F)cc(C(F)(F)F)c2)n1)N1CC(F)(F)C1
study.target: PRKACA-PRKAR2A interaction (SmBiT-PRKACA / LgBiT-PRKAR2A), protein kinase A
endpoint.unit: %
value.measured: 9.545
//
compound: O=c1cc(N2CCOCC2)oc2c(-c3ccccc3)cccc12
study.target: PRKACA-PRKAR2A interaction (SmBiT-PRKACA / LgBiT-PRKAR2A), protein kinase A
endpoint.unit: %
value.measured: 0.5276
//
compound: CN(CC(=O)N(Cc1ccc(C2CCCCC2)cc1)c1ccc(C(=O)O)cc1)S(=O)(=O)c1c(F)c(F)c(F)c(F)c1F
study.target: PRKACA-PRKAR2A interaction (SmBiT-PRKACA / LgBiT-PRKAR2A), protein kinase A
endpoint.unit: %
value.measured: 8.361
//
compound: CCCN1CCN(c2ccc(C(=O)NC3(C(=O)NCC#N)CCCCC3)cc2)CC1
study.target: PRKACA-PRKAR2A interaction (SmBiT-PRKACA / LgBiT-PRKAR2A), protein kinase A
endpoint.unit: %
value.measured: -0.9688
//
compound: Cc1cnc(Nc2ccc(OCCN3CCCC3)cc2)nc1Nc1cccc(S(=O)(=O)NC(C)(C)C)c1 [UM0136753:02, TG101348 (SAR302503)]
study.target: PRKACA-PRKAR2A interaction (SmBiT-PRKACA / LgBiT-PRKAR2A), protein kinase A
endpoint.unit: %
value.measured: 24.97
//
compound: Nc1ccn(C[C@@H](CO)OCP(=O)(O)O)c(=O)n1
study.target: PRKACA-PRKAR2A interaction (SmBiT-PRKACA / LgBiT-PRKAR2A), protein kinase A
endpoint.unit: %
value.measured: -0.4944
//
compound: C[C@H]1O[C@@H](O[C@H]2[C@@H](O)C[C@H](O[C@H]3[C@@H](O)C[C@H](O[C@H]4CC[C@@]5(C)[C@H](CC[C@@H]6[C@@H]5C[C@@H](O)[C@]5(C)[C@@H](C7=CC(=O)OC7)CC[C@]65O)C4)O[C@@H]3C)O[C@@H]2C)C[C@H](O)[C@@H]1O
study.target: PRKACA-PRKAR2A interaction (SmBiT-PRKACA / LgBiT-PRKAR2A), protein kinase A
endpoint.unit: %
value.measured: -2.961
//
compound: C[C@]12CC[C@@H]3c4ccc(O)cc4CC[C@H]3[C@@H]1CC[C@@H]2OC(=O)CCC1CCCC1 [UM0142280:01, Estradiol Cypionate]
study.target: PRKACA-PRKAR2A interaction (SmBiT-PRKACA / LgBiT-PRKAR2A), protein kinase A
endpoint.unit: %
value.measured: 4.433
//
compound: CN(C)c1ccc(/C=C2\C(=O)Nc3ccccc32)cc1
study.target: PRKACA-PRKAR2A interaction (SmBiT-PRKACA / LgBiT-PRKAR2A), protein kinase A
endpoint.unit: %
value.measured: 71.43
//
compound: CN(C(=O)c1cc2ccccc2cc1C(=O)C(c1cccc2ccccc12)P(=O)(O)O)C1CCN(C(=O)c2ccccc2)CC1 (centres unmarked)
study.target: PRKACA-PRKAR2A interaction (SmBiT-PRKACA / LgBiT-PRKAR2A), protein kinase A
endpoint.unit: %
value.measured: 16.06
//
compound: CO/N=C(\C(=O)N[C@@H]1C(=O)N2C(C(=O)O)=C(COC(C)=O)CS[C@H]12)c1csc(N)n1 [UM0133637:02, Cefotaxime (sodium salt)]
study.target: PRKACA-PRKAR2A interaction (SmBiT-PRKACA / LgBiT-PRKAR2A), protein kinase A
endpoint.unit: %
value.measured: 1.378
